Reported Bliss excess values are given for each entry in this list.
# System: FTC-133 (Thyroid Gland Carcinoma);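 further: after 72 h of two-drug dosing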
# ASSAY_TEXT: Bliss excess, mean over the matrix (fraction); higher = more synergy
# answer = number (no unit)

CC1(C)CCC(CN2CCN(c3ccc(C(=O)NS(=O)(=O)c4ccc(NCC5CCOCC5)c([N+](=O)[O-])c4)c(Oc4cnc5[nH]ccc5c4)c3)CC2)=C(c2ccc(Cl)cc2)C1 [Venetoclax] + Cc1cc2ncnn2cc1Nc1ncc2c(n1)n(C1CCOCC1)c(=O)n2C [AZD7648] (first compound max 1 µM, 7x7, partner max 10 µM) ... -0.0156

Could you share which Bliss excess value was measured for COc1nnc2ccc(N3CCC(c4ccc(OCCN5CCN(C)C(=O)[C@H]5C)cc4)CC3)nn12 [AZD5153] + CC1(C)CCC(CN2CCN(c3ccc(C(=O)NS(=O)(=O)c4ccc(NCC5CCOCC5)c([N+](=O)[O-])c4)c(Oc4cnc5[nH]ccc5c4)c3)CC2)=C(c2ccc(Cl)cc2)C1 [Venetoclax] (first compound max 1 µM, 7x7, partner max 1 µM) ?
-0.0745

---

# Tested on: KMRC-20 (Kidney Carcinoma)
# ASSAY_TEXT: combination Emax (second highest fraction inhibited in the dose matrix, 72 h); higher = more inhibition; extreme values may be limits of the assay
Met means recorded combination Emax is 0.5 or above; Not met means it is below 0.5.

Identify whether the reported combination Emax of the following compound is 0.5 or greater: Cc1c2c(nn1C)CSCc1cc(n(C)n1)CSc1cc(c3ccccc3c1)OCCCc1c(C(=O)O)n(C)c3c-2c(Cl)ccc13 [AZD5991] + CC1(C)CCC(CN2CCN(c3ccc(C(=O)NS(=O)(=O)c4ccc(NCC5CCOCC5)c([N+](=O)[O-])c4)c(Oc4cnc5[nH]ccc5c4)c3)CC2)=C(c2ccc(Cl)cc2)C1 [Venetoclax] (first compound max 1 µM, 7x7, partner max 1 µM)
Not met

What would you report for COc1nnc2ccc(N3CCC(c4ccc(OCCN5CCN(C)C(=O)[C@H]5C)cc4)CC3)nn12 [AZD5153] + CC1(C)CCC(CN2CCN(c3ccc(C(=O)NS(=O)(=O)c4ccc(NCC5CCOCC5)c([N+](=O)[O-])c4)c(Oc4cnc5[nH]ccc5c4)c3)CC2)=C(c2ccc(Cl)cc2)C1 [Venetoclax] (first compound max 1 µM, 7x7, partner max 1 µM) ?
Not met

What would you report for COc1nnc2ccc(N3CCC(c4ccc(OCCN5CCN(C)C(=O)[C@H]5C)cc4)CC3)nn12 [AZD5153] + C=CCn1c(=O)c2cnc(Nc3ccc(N4CCN(C)CC4)cc3)nc2n1-c1cccc(C(C)(C)O)n1 [AZD1775] (first compound max 1 µM, partner max 1 µM) ?
Met

What would you report for Cn1cnc2c(F)c(Nc3ccc(Br)cc3Cl)c(C(=O)NOCCO)cc21 [Selumetinib] + CCN(CCO)CCCOc1ccc2c(Nc3cc(CC(=O)Nc4cccc(F)c4)[nH]n3)ncnc2c1 [AZD2811] (first compound max 10 µM, 7x7, partner max 1 µM) ?
Not met

What would you report for Cc1cc2ncnn2cc1Nc1ncc2c(n1)n(C1CCOCC1)c(=O)n2C [AZD7648] + C[C@@H]1COCCN1C2=NC(=NC(=C2)C3(CC3)[S@](=N)(=O)C)C4=C5C=CNC5=NC=C4 [AZD6738] (first compound max 10 µM, 7x7, partner max 10 µM) ?
Not met
